# assayed system: T1, EGFR-ECD (extracellular domain of human epidermal growth factor receptor, 1-643) (Homo sapiens, UniProt P00533, N-linked oligosaccharides cleaved by endoglycosidase H)
# T1 construct: human epidermal growth factor receptor, extracellular domain, residues 1-643 as printed; A TEV site between the ECD and the His-tag is implied by the cleavage; also called extracellular domain of human EGFR; human EGFR-ECD; source: HEK293S GnTI- cells, transient overexpression, secreted; purified (HisTrap, TEV cleavage of the His-tag, endoglycosidase H, HiTrap Q, SEC); not shown: His-tag, …
# experiment notes: SPR; BIAcore 3000; EGFR-ECD immobilised on a CM5 chip by amine coupling; single-cycle kinetics with 50.0, 16.6, 5.55, 1.85 and 0.617 nM Fv or Fab; 30 ul/min, 60-s association, 120-s dissociation; 25 C; HBS-EP+ buffer; triplicate
# experimental context: both partners purified
measured metric: kon (M⁻¹ s⁻¹)
Write the number in M⁻¹ s⁻¹ without appending the unit.

Consider the following illustrative entries.
binder	unit descriptor	observed value
AzF-incorporated 059-152-Fab (Fab, V domains shown, also in PDB 5XWD; linker inserted just before the stop codon, followed by the amber codon that is read as AzF; AzF is the last residue of the VHCH1 chain, after the linker; also called AzF-incorporated Fab; not shown: N11-tag, N-terminal, cleaved) VH: QVQLQESGPGLVKPSETLSLTCTVSGGSISSSSYYWGWIRQPPGKGLEWIGSIYYSGSTYYNPSLKSRVTISVDTSKNQFSLKLSSVTAADTAVYYCARLPMVTMSFDYWGQGTLVTVSS VL: SYVLTQPPSVSVAPGKTARITCGGNNIGSKSVHWYQQKPGQAPVLVIYYDSDRPSGIPERFSGSNSGNTATLTISRVEAGDEADYYCQVWDSSSDHVVFGGGTKLTVL	M⁻¹ s⁻¹	1.78e+06
059-152-Fab (Fab fragment of the fully human anti-EGFR antibody 059-152) (Fab, V domains shown, also in PDB 5XWD; its VL part is in PDB 5XWD; source: cell-free synthesis (E. coli S30 extract, dialysis mode, 0.8 mg/ml DsbC), purified (HisTrap, TEV cleavage, SEC); not shown: N11-tag, N-terminal, cleaved) VH: QVQLQESGPGLVKPSETLSLTCTVSGGSISSSSYYWGWIRQPPGKGLEWIGSIYYSGSTYYNPSLKSRVTISVDTSKNQFSLKLSSVTAADTAVYYCARLPMVTMSFDYWGQGTLVTVSS VL: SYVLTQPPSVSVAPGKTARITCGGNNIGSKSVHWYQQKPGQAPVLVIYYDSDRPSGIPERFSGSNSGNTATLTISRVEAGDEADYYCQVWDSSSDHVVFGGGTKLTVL	M⁻¹ s⁻¹	1.94e+06
059-152-Fv (Fv fragment of the fully human anti-EGFR antibody 059-152) (other, also in PDB 5XWD; VL also in PDB 5XWD; Fv: VH and VL synthesised together as two separate chains; source: cell-free synthesis (E. coli S30 extract, dialysis mode, 0.2 mg/ml DsbC), purified (HisTrap, TEV cleavage, SEC); not shown: N11-tag, N-terminal, cleaved) VH: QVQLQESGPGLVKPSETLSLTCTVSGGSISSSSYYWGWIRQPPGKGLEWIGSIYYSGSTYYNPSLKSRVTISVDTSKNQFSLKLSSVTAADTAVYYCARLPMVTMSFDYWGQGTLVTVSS VL: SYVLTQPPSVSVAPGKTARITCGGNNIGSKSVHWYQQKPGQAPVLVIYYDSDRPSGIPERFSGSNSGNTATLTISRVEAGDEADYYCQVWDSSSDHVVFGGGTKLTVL	M⁻¹ s⁻¹	2.49e+06
AzF-incorporated 059-152-Fv (other, human, also in PDB 5XWD; linker inserted just before the stop codon, followed by the amber codon that is read as AzF; Fv; AzF is the last residue of the VH chain, after the linker; also called AzF-incorporated Fv; not shown: N11-tag, N-terminal, cleaved) VH: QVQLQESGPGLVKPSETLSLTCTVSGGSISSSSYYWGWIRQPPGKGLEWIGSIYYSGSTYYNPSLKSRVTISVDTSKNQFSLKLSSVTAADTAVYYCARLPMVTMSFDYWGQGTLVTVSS VL: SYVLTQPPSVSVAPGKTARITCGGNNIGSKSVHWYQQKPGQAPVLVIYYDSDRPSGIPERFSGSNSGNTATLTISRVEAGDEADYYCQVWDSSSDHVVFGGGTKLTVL	M⁻¹ s⁻¹	2.36e+06
Alexa-488 conjugated 059-152-Fv (other, human, also in PDB 5XWD; linker inserted just before the stop codon, followed by the amber codon that is read as AzF; Fv; m3 after copper-free click chemistry; also called Alexa-488 conjugated Fv; not shown: N11-tag, N-terminal, cleaved) VH: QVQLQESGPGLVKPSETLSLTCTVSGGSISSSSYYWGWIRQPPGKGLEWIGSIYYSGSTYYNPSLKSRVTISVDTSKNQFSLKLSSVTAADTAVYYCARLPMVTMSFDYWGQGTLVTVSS VL: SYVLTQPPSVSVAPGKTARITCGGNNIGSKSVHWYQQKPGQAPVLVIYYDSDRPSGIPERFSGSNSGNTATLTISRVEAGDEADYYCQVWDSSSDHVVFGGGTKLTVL	M⁻¹ s⁻¹	2.52e+06

Now turn to the next binder.
Need kon, item Alexa-488 conjugated 059-152-Fab (Fab, V domains shown, also in PDB 5XWD; linker inserted just before the stop codon, followed by the amber codon that is read as AzF; m6 after copper-free click chemistry; also called Alexa-488 conjugated Fab; not shown: N11-tag, N-terminal, cleaved) VH: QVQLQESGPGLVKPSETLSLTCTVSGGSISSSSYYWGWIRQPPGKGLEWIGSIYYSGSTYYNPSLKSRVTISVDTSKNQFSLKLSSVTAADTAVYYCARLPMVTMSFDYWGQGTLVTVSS VL: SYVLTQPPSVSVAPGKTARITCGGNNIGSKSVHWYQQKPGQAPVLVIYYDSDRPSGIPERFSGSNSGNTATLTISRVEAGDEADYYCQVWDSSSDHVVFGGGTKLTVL
1.67e+06

Every entry's value here was drawn from paper PMC5819829.
